Below is a list of entries, each paired with its recorded Percent IOP Reduction ± SEM, 6 hours after dose value.
System: lasered (hypertensive) eyes of conscious cynomolgus monkeys
protocol_summary: Acute IOP Response in Lasered (Hypertensive) Eyes of Conscious Cynomolgus Monkeys
Format: in vivo, cynomolgus monkey
conditions: topical, one 30 μL aliquot; 6 h; dose (R)-DOI 100 μg, α-methylserotonin 250 μg, 5-methoxy-α-methyltryptamine 300 μg, serotonin 250 μg
measured_parameter: Percent IOP Reduction ± SEM, 6 hours after dose

[
  {
    "compound": "COc1ccc2[nH]cc(CC(C)N)c2c1 (stereo not drawn) [5-Methoxy-α-methyltryptamine, 5-methoxy-α-methyltryptamine]",
    "observed_value": "33.4 ± 5.39%"
  },
  {
    "compound": "NCCc1c[nH]c2ccc(O)cc12 [Serotonin, 5-hydroxytryptamine]",
    "observed_value": "2.0 ± 7.39%"
  },
  {
    "compound": "CC(N)Cc1c[nH]c2ccc(O)cc12 (stereo not drawn) [α-Methylserotonin, α-methyl-serotonin]",
    "observed_value": "30.8 ± 7.72%"
  },
  {
    "compound": "COc1cc(C[C@@H](C)N)c(OC)cc1I [(R)-DOI]",
    "observed_value": "34.4 ± 4.98%"
  }
]
